// data source = patent US7390910B2

Tested on: KBV1
ASSAY_INFO: cells
Format: cell-based
RECORDED_CONDITIONS: Homo sapiens, KB-V1, 3000 nM
In this section we review reported inhibition at 3 µM values for a set of compounds.
# output: bare number, implied unit %

Below, 5 compounds whose answers are already recorded.
> print(dat)
                                   compound   measured.property  val
1  C/C(=C\[C@H](C(C)C)N(C)C(=O)[C@@H](NC(=O)C(Cc1ccccc1)C(C)(C)c1ccccc1)C(C)(C)C)C(=O)O (stereo partly drawn)  inhibition at 3 µM   11
2  CN[C@H](C(=O)N[C@H](C(=O)N(C)[C@H](/C=C1\NC(=O)NC1=O)C(C)C)C(C)(C)C)C(C)(C)c1ccccc1  inhibition at 3 µM   10
3  CN[C@H](C(=O)N[C@H](C(=O)N(C)[C@H](/C=C/P(=O)(O)O)C(C)C)C(C)(C)C)C(C)(C)c1ccccc1  inhibition at 3 µM    3
4  CO[C@H](C(=O)N[C@H](C(=O)N(C)[C@H](/C=C(\C)C(=O)O)C(C)C)C(C)(C)C)C(C)(C)c1ccccc1  inhibition at 3 µM    0
5  CN[C@H](C(=O)N[C@H](C(=O)N(C)[C@H](/C=C(\C)C(=O)N1CCC[C@H]1C(=O)O)C(C)C)C(C)(C)C)C(C)(C)c1ccc(C)c(C)c1  inhibition at 3 µM    6

Now for the compound whose inhibition at 3 µM we want.
Prompt: Short answer please: inhibition at 3 µM, KBV1, entry "CN[C@H](C(=O)N[C@H](C(=O)N(C)[C@H](/C=C(\C)C(=O)O)C(C)C)C(C)(C)C)C12CC3CC(CC(C3)C1)C2"
Completion: 13

---

In this section we review reported inhibition at 3 µM values for a set of compounds.
Test system: KB85
ASSAY_INFO: cells
Type: cell-based
RECORDED_CONDITIONS: 3000 nM
# output: bare number, implied unit %

Below, 6 compounds whose answers are already recorded.
> print(dat)
                                   compound  val
1  C/C(=C\[C@H](C(C)C)N(C)C(=O)[C@@H](NC(=O)C(C(C)(C)c1ccccc1)S(C)(=O)=O)C(C)(C)C)C(=O)O (stereo partly shown)   30
2  CN[C@H](C(=O)N[C@H](C(=O)N(C)[C@H](/C=C/P(=O)(O)OC)C(C)C)C(C)(C)C)C(C)(C)c1ccccc1    0
3  CO[C@H](C(=O)N[C@H](C(=O)N(C)[C@H](/C=C(\C)C(=O)O)C(C)C)C(C)(C)C)C(C)(C)c1ccccc1   21
4  CN[C@H](C(=O)N[C@H](C(=O)N(C)[C@H](/C=C(/C)S(=O)(=O)O)C(C)C)C(C)(C)C)C(C)(C)c1ccccc1    0
5  C/C(=C\[C@H](C(C)C)N(C)C(=O)[C@@H](NC(=O)[C@@H]1CCCN1C)C(C)(C)C)C(=O)O   26
6  CN[C@H](C(=O)N[C@H](C(=O)N(C)[C@H](/C=C/S(=O)(=O)O)C(C)C)C(C)(C)C)C(C)(C)c1ccccc1    1

Prompt: Which value of inhibition at 3 µM has been reported for "CN[C@H](C(=O)N[C@H](C(=O)N(C)[C@H](/C=C/P(=O)(O)O)C(C)C)C(C)(C)C)C(C)(C)c1ccccc1" in the records?
Completion: 0

Prompt: How about this compound: "CN[C@H](C(=O)N[C@H](C(=O)N(C)[C@H](/C=C(\C)P(=O)(O)O)C(C)C)C(C)(C)C)C(C)(C)c1ccccc1"
Completion: 0

Prompt: How about this compound: "CCOS(=O)(=O)/C=C/[C@H](C(C)C)N(C)C(=O)[C@@H](NC(=O)[C@@H](NC)C(C)(C)c1ccccc1)C(C)(C)C"
Completion: 0

Prompt: How about this compound: "CCOS(=O)(=O)/C(C)=C/[C@H](C(C)C)N(C)C(=O)[C@@H](NC(=O)[C@@H](NC)C(C)(C)c1ccccc1)C(C)(C)C"
Completion: 1

---

Test system: LOX
ASSAY_INFO: Cell survival assay (SRB), LOX
Format: cell-based, human
RECORDED_CONDITIONS: Homo sapiens; LOX cells
Procedure: Cell Survival Assay: Standard Pharmacological Test Procedure. […] Compounds are incubated with cells for 3 days.
In this section we review reported IC50 values for a set of compounds.
# output: bare number, implied unit nM

Below, 2 compounds whose answers are already recorded.
> print(dat)
                                smiles.code  val
1  CN[C@H](C(=O)N[C@H](C(=O)N(C)[C@H](/C=C(\C)C(=O)N1CCOCC1)C(C)C)C(C)(C)C)C(C)(C)c1ccccc1   50
2  CN[C@H](C(=O)N[C@H](C(=O)N(C)[C@H](/C=C(\C)C=O)C(C)C)C(C)(C)C)C(C)(C)c1ccccc1  630

Now for the compound whose IC50 we want.
Prompt: Which value of IC50 has been reported for "CN[C@H](C(=O)N[C@H](C(=O)N(C)[C@H](/C=C(\C)C(=O)N1CCN(C)CC1)C(C)C)C(C)(C)C)C(C)(C)c1ccccc1" in the records?
Completion: 46

---

In this section we review reported pIC50 values for a set of compounds.
System: Colo205
ASSAY_INFO: Cell survival assay (SRB), Colo205
Format: cell-based
RECORDED_CONDITIONS: Homo sapiens, COLO 205, 72 h, Colo205 cells, 3 days
# pIC50 is unitless: minus log10 of the molar concentration; print number only

Prompt: Which value of pIC50 has been reported for CO[C@@H](C(=O)N[C@H](C(=O)N(C)[C@H](/C=C(\C)C(=O)O)C(C)C)C(C)(C)C)C(C)(C)c1ccccc1 [Example 106] in the records?
Completion: 6.03

Prompt: How about this compound: CN[C@H](C(=O)N[C@H](C(=O)N(C)[C@H](/C=C(\C)C(=O)N1CCOCC1)C(C)C)C(C)(C)C)C(C)(C)c1ccccc1 [Example 27]
Completion: 7.64

Prompt: How about this compound: CCC(C(=O)N[C@H](C(=O)N(C)[C@H](/C=C(\C)C(=O)O)C(C)C)C(C)(C)C)C(C)(C)c1ccccc1 (stereo partly drawn) [Example 100]
Completion: 6.72

---

Tested on: S1
ASSAY_INFO: Cell survival assay (SRB), S1
Assay type: cell-based
RECORDED_CONDITIONS: S1 cells
In this section we review reported pIC50 values for a set of compounds.
# pIC50 is unitless: minus log10 of the molar concentration; print number only

> print(dat)
                                   compound   val
1  CN[C@H](C(=O)N[C@H](C(=O)N(C)[C@H](/C=C(\C)C(=O)N1CCC[C@H]1C(=O)OC)C(C)C)C(C)(C)C)C(C)(C)c1ccccc1 [Example 35]  8.05

Now for the compound whose pIC50 we want.
Prompt: Short answer please: pIC50, S1, entry CN[C@H](C(=O)N[C@H](C(=O)N(C)[C@H](/C=C(\C)C(=O)N1CCOCC1)C(C)C)C(C)(C)C)C(C)(C)c1ccccc1 [Example 27]
Completion: 6.18

---

In this section we review reported Tubulin Polym. % inhibition at 0.3 uM values for a set of compounds.
Test system: bovine microtubule-associated protein (MAP)-rich tubulin
Format: biochemical
RECORDED_CONDITIONS: 0.3 uM
# output: bare number, implied unit %

Below, 2 compounds whose answers are already recorded.
SMILES_CODE	RESULT_UNIT	VAL
CN[C@H](C(=O)N[C@H](C(=O)N(C)[C@H](/C=C/P(=O)(O)O)C(C)C)C(C)(C)C)C(C)(C)c1ccccc1	%	69
CN[C@H](C(=O)N[C@H](C(=O)N(C)[C@H](/C=C(\C)C(=O)N1CCC[C@H]1[C@H](OC)[C@@H](C)C(=O)NCCc1ccccc1)C(C)C)C(C)(C)C)C(C)(C)c1ccccc1	%	69

Now for the compound whose Tubulin Polym. % inhibition at 0.3 uM we want.
Prompt: Which value of Tubulin Polym. % inhibition at 0.3 uM has been reported for "CN[C@H](C(=O)N[C@H](C(=O)N(C)[C@H](/C=C(\C)C(=O)N1CCN(C)CC1)C(C)C)C(C)(C)C)C(C)(C)c1cc(C)cc(C)c1" in the records?
Completion: 68

---

System: KB85
ASSAY_INFO: cells
Assay type: cell-based
RECORDED_CONDITIONS: 72 h, 3 days, SRB
MEASURED_PROPERTY: IC50 (nM)
# output: bare number, implied unit nM

Below, 2 compounds whose answers are already recorded.
SMILES_CODE	MEASURED_ON	VAL
CN[C@H](C(=O)N[C@H](C(=O)N(C)[C@H](/C=C(\C)C(=O)N1C[C@H](O)C[C@H]1C(=O)O)C(C)C)C(C)(C)C)C(C)(C)c1ccccc1	KB85	1850
CN[C@H](C(=O)N[C@H](C(=O)N(C)[C@H](/C=C(\C)C(=O)N1CCOCC1)C(C)C)C(C)(C)C)C(C)(C)c1cccc(C)c1	KB85	56

Prompt: Short answer please: IC50, KB85, entry "CN[C@@H](C(=O)N[C@H](C(=O)N(C)[C@H](/C=C(\C)C(=O)N1CCOCC1)C(C)C)C(C)(C)C)C(C)(C)c1ccc(C)c(C)c1"
Completion: 536

Prompt: How about this compound: "CN[C@H](C(=O)N[C@H](C(=O)N(C)[C@H](/C=C(\C)C(=O)N1CCC[C@H]1[C@H](OC)[C@@H](C)C(=O)N[C@@H](Cc1ccccc1)c1nccs1)C(C)C)C(C)(C)C)C(C)(C)C1CCCCC1"
Completion: 6.2

Prompt: How about this compound: "CN[C@H](C(=O)N[C@H](C(=O)N(C)[C@H](/C=C(\C)C(=O)N1CCN(Cc2ccccc2)CC1)C(C)C)C(C)(C)C)C(C)(C)c1ccccc1"
Completion: 22
